methodSummary: Volatility of perfuming compounds (Tables 4 to 10), with top/middle/bottom note type
Assay type: physicochemical
reportedConditions: Table 6, perfuming compounds having a fruity note
Grouping rule (Volatility): zone 1 = under 40 μg/l air, zone 2 = from 40 μg/l air up to 1000 μg/l air, zone 3 = 1000 μg/l air and over

compound: Cc1ccc(OC(=O)C(C)C)cc1 [4-METHYLPHENYL ISOBUTYRATE]
assignedClass: zone 2
//
compound: CCCCC/C(C=O)=C\c1ccccc1 [(E)-2-PENTYL-3-PHENYL-2-PROPENAL]
assignedClass: zone 1
//
compound: C/C=C/c1ccc(OC(C)=O)c(OC)c1
assignedClass: zone 1
//
compound: CC(=O)OCc1ccccc1 [benzyl acetate]
assignedClass: zone 2

Q: Exam item: assign CCCCC/C=C\C=C\C(=O)OCC [ethyl (2E,4Z)-2,4-decadienoate] to the correct category.
A: zone 1

Q: Exam item: assign CCCCCCCOC(C)=O [heptyl acetate] to the correct category.
A: zone 3

Q: Exam item: assign CCC/C=C/COC(C)=O [(E)-2-HEXENYL ACETATE] to the correct category.
A: zone 3

Q: Exam item: assign CCCCCC1(C)CCC(C)(C)C1=O (racemic) to the correct category.
A: zone 2

* * *

methodSummary: Volatility of perfuming compounds (Tables 4 to 10), with top/middle/bottom note type
Format: physicochemical
reportedConditions: Table 10, woody note
measure: Volatility
Record the result as a number with its unit.

Previously resolved entries follow.
compound: CCOCOC1CCCCCCCCCCC1 [(ETHOXYMETHOXY)CYCLODODECANE]
measure: Volatility
reportedMeasurement: 6.63 μg/l air
//
compound: CC1C(C)(C)C2=C(C(=O)CCC2)C1(C)C (centres unmarked)
measure: Volatility
reportedMeasurement: 29.81 μg/l air
//
compound: CC(=O)O[C@@H]1C(C)(C)CCC[C@]12CC=C(C)C[C@H]2C (racemic)
measure: Volatility
reportedMeasurement: 8.25 μg/l air
//
compound: COC(C)(C)CCCC(C)C(C)O (racemic)
measure: Volatility
reportedMeasurement: 35.54 μg/l air
//
compound: CC1(C)CCC[C@@]2(C)[C@H]1CC[C@@]1(C)OCC[C@@H]21
measure: Volatility
reportedMeasurement: 9.23 μg/l air
//
compound: CC(=O)O[C@@H]1CC[C@@H]2C(C)(C)CCC[C@@]2(C)C1 (racemic)
measure: Volatility
reportedMeasurement: 14.41 μg/l air
//
compound: CC(=O)/C=C/C1=C(C)CCCC1(C)C
measure: Volatility
reportedMeasurement: 35.41 μg/l air
//
compound: CC(=O)/C=C/C1C(C)CCC(C)C1(C)C (racemic)
measure: Volatility
reportedMeasurement: 20.50 μg/l air
//
compound: COc1ccc(OC)c(C(C)(C)C)c1
measure: Volatility
reportedMeasurement: 82.95 μg/l air
//
compound: CC(=O)O[C@@H]1CC2CC[C@]1(C)C2(C)C
measure: Volatility
reportedMeasurement: 735.37 μg/l air

Q: For CC/C(=C\C[C@H]1CC=C(C)C1(C)C)CO , write its Volatility.
A: 2.75 μg/l air

Q: For CCC(C)C1(C)COC(C2CCC(C)=CC2C)OC1 (centres unmarked) , write its Volatility.
A: 3.82 μg/l air

Q: For O=C/C=C/c1ccccc1 [(E)-3-PHENYL-2-PROPENAL] , write its Volatility.
A: 70.14 μg/l air

Q: For CC1CCC2C(C)(C)C3CC12CCC3(C)O (racemic) , write its Volatility.
A: 11.83 μg/l air

Q: For CCCCO , write its Volatility.
A: 17700.00 μg/l air

Q: For CCCC(O)CCC1C(C)CCC(C)C1(C)C (racemic) , write its Volatility.
A: 3.42 μg/l air

Q: For CCC(=CCC1CC=C(C)C1(C)C)CO (racemic) , write its Volatility.
A: 3.69 μg/l air
